Experimental Protocol: In vitro inhibitory activity of compound against microtubule polymerization in a tubulin assembly assay
Format: functional
Readout Label: IC50 (µM)
# unit: µM | format: bare number

Would you please look over these solved cases?
COc1ccc(C[C@H]2NC(=O)/C=C/C[C@@H]([C@H](C)[C@H]3O[C@@H]3c3ccccc3)OC(=O)[C@H](CC(C)C)OC(=O)[C@H](C)CNC2=O)cc1Cl [CRYPTOPHYCIN A] ... 3.4
COc1ccc(C[C@H]2NC(=O)/C=C/C[C@@H](C(C)[C@H]3O[C@@H]3c3ccccc3)OC(=O)[C@H](CC(C)C)OC(=O)CCNC2=O)cc1 (single isomer, unassigned) [ARENASTATIN A] ... 15.8

# ---- query compound ----
input: So what does the record say about IC50 for COc1ccc(C[C@H]2NC(=O)/C=C/C[C@@H](C(C)[C@H]3O[C@@H]3c3ccccc3)OC(=O)C(CC(C)C)OC(=O)CCNC2=O)cc1 (single isomer, unassigned) [ARENASTATIN A] ?
output: 13.7

###

Experimental Protocol: In vitro inhibitory activity of compound against microtubule polymerization in a tubulin assembly assay
Type: functional
Entries annotated with measured IC50

COc1ccc(C[C@H]2NC(=O)/C=C/C[C@@H]([C@H](C)/C=C/c3ccccc3)OC(=O)[C@@H](CC(C)C)OC(=O)CCNC2=O)cc1 ... > 100 µM

input: Requested read-out: IC50. Entry: `COc1ccc(C[C@H]2NC(=O)/C=C/C[C@@H]([C@H](C)/C=C/c3ccccc3)OC(=O)[C@@H](CC(C)C)OC(=O)CCNC2=O)cc1Cl`
output: > 100 µM

input: Query: IC50; subject: COc1ccc(C[C@H]2NC(=O)/C=C/CC(C(C)C3OC3c3ccccc3)OC(=O)[C@@H](CC(C)C)OC(=O)CCNC2=O)cc1Cl (single isomer, unassigned)
output: 10.6 µM

###

System: MCF7
Experimental Protocol: In vitro inhibitory activity of compound against induced cytotoxicity in MCF-7 cell line
Assay type: functional, cell-based, Homo sapiens
Conditions Used: mcf7
Readout Label: IC50 (nM)
Kindly provide the numeric value in nM only, without the unit symbol.

input: GET /values?readout=IC50&item= COc1ccc(C[C@H]2NC(=O)/C=C/C[C@@H](C(C)[C@H]3O[C@@H]3c3ccccc3)OC(=O)C(CC(C)C)OC(=O)CCNC2=O)cc1 (single isomer, unassigned)
output: 88

###

Tested on: NCI/ADR-RES
Experimental Protocol: In vitro inhibitory activity of compound against induced cytotoxicity in multidrug-resistant MCF-7/ADR breast cancer cell line
Assay type: functional, cell-based, Homo sapiens
Conditions Used: nci/adr-res
Readout Label: pIC50
For clarity, pIC50 is expressed as the negative log10 of concentration in mol/L.

COc1ccc(C[C@H]2NC(=O)/C=C/C[C@@H](C(C)[C@H]3O[C@@H]3c3ccccc3)OC(=O)C(CC(C)C)OC(=O)CCNC2=O)cc1 (single isomer, unassigned) [ARENASTATIN A] ... 5.62

input: Give the reported pIC50 for COc1ccc(C[C@H]2NC(=O)/C=C/C[C@@H](C(C)[C@H]3O[C@@H]3c3ccccc3)OC(=O)[C@H](CC(C)C)OC(=O)CCNC2=O)cc1 (single isomer, unassigned) [ARENASTATIN A] (system: NCI/ADR-RES).
output: 6.60
